- procedure details: Half life in dog at 10 mg/kg, po
- Format: ADME, organism-based, Canis lupus familiaris
- Set-up: dose 10 mg/kg, route oral
- protocol conditions: in vivo
observable: half-life (h)
Numbers only, in h.

The recorded half-life for entry Cc1c(N2CCCC2=O)cccc1S(=O)(=O)N[C@@H](CNC(=O)c1ccc(Cl)s1)C(=O)N1CCN(C)CC1.Cl equals 2.4

---

- procedure details: Cmax in dog at 10 mg/kg, po
- Format: ADME, organism-based, Canis lupus familiaris
- Set-up: dose 10 mg/kg, route oral
- protocol conditions: in vivo
observable: Cmax (ng/mL)
Give bare numbers, in ng/mL.

The recorded Cmax for entry Cc1c(N2CCCC2=O)cccc1S(=O)(=O)N[C@@H](CNC(=O)c1ccc(Cl)s1)C(=O)N1CCN(C)CC1.Cl equals 1530
